- System: SF-268 CNS
- test.name: NCI tumour cell line growth inhibition, 48 h; in the data active means GI50 below about 0.43 µM; inactive means the rest
Labels: active, inactive

[[record]]
compound = "N#C/C(=C\\c1cccnc1)c1nc2ccccc2o1"
target_entity = "SF-268 CNS"
class = "inactive"

[[record]]
compound = "CC[C@H](C)[C@H](NC(=O)c1nccn1C)C(=O)N(C)[C@H](C[C@@H](OC(C)=O)c1nc(C(=O)N[C@@H](Cc2ccccc2)C[C@H](C)C(=O)OC)cs1)C(C)C"
target_entity = "SF-268 CNS"
class = "inactive"

[[record]]
compound = "C[C@H]1CC2=CC(=O)CC[C@]2(C)[C@H]2CC[C@@]3(C)[C@@H](CC[C@]3(C)O)[C@H]12"
target_entity = "SF-268 CNS"
class = "inactive"

[[record]]
compound = "COc1cc(/C=C\\c2cc(OC)c(OC)c(OC)c2)cc(NS(=O)(=O)c2cccc(Cl)c2)c1OC"
target_entity = "SF-268 CNS"
class = "active"

[[record]]
compound = "O=C(Nc1ccc(-c2ccnc(Nc3ccc(N4CCOCC4)cc3)n2)cc1)C1CCCN1 (stereo unspecified)"
target_entity = "SF-268 CNS"
class = "inactive"

[[record]]
compound = "Cc1cc(S(=O)(=O)Nc2nc3cc(-c4ccsc4)sc3c(=O)n2N)c(S)cc1Cl"
target_entity = "SF-268 CNS"
class = "inactive"

[[record]]
compound = "O=C(Nc1cccc([N+](=O)[O-])c1)c1cc2ccccc2cc1O"
target_entity = "SF-268 CNS"
class = "inactive"

[[record]]
compound = "COc1cc(CNC(=O)CCSc2nc3ccccc3c(=O)n2Cc2cc(OC)c(OC)c(OC)c2)cc(OC)c1OC"
target_entity = "SF-268 CNS"
class = "inactive"

[[record]]
compound = "Cc1ccc(/C=C2\\CN(Cc3cn(CCNc4ccnc5cc(Cl)ccc45)nn3)C/C(=C\\c3ccc(C)cc3)C2=O)cc1"
target_entity = "SF-268 CNS"
class = "inactive"

[[record]]
compound = "C=C1C[C@@H]2[C@H](CC[C@]3(C)C(=O)CC[C@@H]23)[C@@]2(C)C=CC(=O)C=C12"
target_entity = "SF-268 CNS"
class = "inactive"

[[record]]
compound = "O=c1[nH]cnc2nc(-c3ccc(N(CCCl)CCCl)cc3)[nH]c12"
target_entity = "SF-268 CNS"
class = "inactive"

[[record]]
compound = "Cn1c(O)c(N=NC(N)=S)c2ccccc21"
target_entity = "SF-268 CNS"
class = "inactive"

[[record]]
compound = "C=C1C(=O)O[C@H]2[C@H]1CC/C(COC(=O)/C=C/c1c[nH]c3ccccc13)=C\\CC[C@@]1(C)O[C@@H]21"
target_entity = "SF-268 CNS"
class = "active"

[[record]]
compound = "C/C=C/C(=O)[O-].N.N.N.N.N.[Co+3].[O-][Cl+3]([O-])([O-])[O-]"
target_entity = "SF-268 CNS"
class = "inactive"

[[record]]
compound = "C#CCOc1cccc(Nc2ncc3ncn(C4CCN(C(=O)CCl)C4)c3n2)c1 (stereo unspecified)"
target_entity = "SF-268 CNS"
class = "inactive"

[[record]]
compound = "CCC(=O)OC1=CN2C(=NC(c3ccc(N)cc3)=CC2c2cc(OC)c(OC)c(OC)c2)S1 (stereo unspecified)"
target_entity = "SF-268 CNS"
class = "inactive"


----------
- Tested on: MDA-MB-435
- test.name: NCI tumour cell line growth inhibition, 48 h
quantity.kind: TGI

[[record]]
compound = "CN1N=Nc2c(C(F)(F)F)nn(-c3ccccc3)c2N(C)C1=O"
reading = "> 100 µM"

[[record]]
compound = "CCOC(=O)C1=C(C)N(c2ccc(C)cc2)C2(O)C=CC(=O)C3=C(O)c4ccccc4C(=O)C312 (stereo not given)"
reading = "> 100 µM"

[[record]]
compound = "Cc1ccc(/C=C2\\CN(Cc3cn(CCNc4ccnc5cc(Cl)ccc45)nn3)C/C(=C\\c3ccc(C)cc3)C2=O)cc1"
reading = "3.1 µM"

[[record]]
compound = "COC(=O)C1[C@H](C(=O)OC)C1(Br)CBr (stereo not given in full)"
reading = "> 100 µM"

[[record]]
compound = "COc1cc(CC2CC(c3ccc4c(c3)OCO4)OC2=O)cc(OC)c1OC (stereo not given)"
reading = "> 100 µM"


----------
- Test system: CAKI-1 renal
- test.name: NCI tumour cell line growth inhibition, 48 h; in the data active means GI50 below about 0.43 µM; inactive means the rest
Labels: active, inactive

[[record]]
molecule = "CN(C)c1ccc(N=C(C#N)c2nc(N)nc(N3CCN(c4ccccc4)CC3)n2)cc1"
class = "inactive"

[[record]]
molecule = "Cc1ccc(S(=O)(=O)c2ccsc2N)cc1"
class = "inactive"

[[record]]
molecule = "CC(C)=CCC/C(C)=C/[C@H]1OC(=O)CC12C[C@H](O)C=CC2=O (stereo partly drawn)"
class = "inactive"

[[record]]
molecule = "O=C(c1ccccc1)c1ccccc1C(=O)c1ccccc1"
class = "inactive"

[[record]]
molecule = "COc1cc(CNC(=O)CCSc2nc3ccccc3c(=O)n2Cc2cc(OC)c(OC)c(OC)c2)cc(OC)c1OC"
class = "inactive"

[[record]]
molecule = "Cc1nc2sc(C(=O)Nc3cccc(Cl)c3C)c(N)c2cc1C(C)O (stereo not drawn)"
class = "active"

[[record]]
molecule = "Cc1cc(S(=O)(=O)Nc2nc3cc(-c4ccsc4)sc3c(=O)n2N)c(S)cc1Cl"
class = "inactive"

[[record]]
molecule = "Cc1nn2c(/C=C3\\C(=O)Nc4ccccc43)c(C)nc2s1"
class = "inactive"


----------
- System: SNB-75 CNS
- test.name: NCI tumour cell line growth inhibition, 48 h
Class boundaries, taken from values of TGI, are as follows: label 0 = under 4 µM, label 1 = from 4 µM up to 20 µM, label 2 = 20 µM and over

[[record]]
compound = "O[C@H](CN1CC1)[C@@H](O)CN1CC1"
class = "label 2"

[[record]]
compound = "[N-]=[N+]=Nc1c(Br)c(=O)[nH]c(=O)n1COCCO"
class = "label 2"

[[record]]
compound = "N#CC1CCc2c(c(-c3cn[nH]c3C(F)(F)F)nc3c(F)cc4[nH]ncc4c23)C1 (stereo not drawn)"
class = "label 1"

[[record]]
compound = "O=C1C2=C(c3ccccc31)C(c1ccc(F)cc1)N1C(=O)CCSC1=N2 (stereo not drawn)"
class = "label 2"

[[record]]
compound = "Cc1nc2sc(C(=O)Nc3cccc(Cl)c3C)c(N)c2cc1C(C)O (stereo not drawn)"
class = "label 2"

[[record]]
compound = "COc1cc(-c2[o+]c3cc(O)cc(OC4OC(CO)C(O)C(O)C4O)c3cc2OC2OC(CO)C(O)C(O)C2O)cc(OC)c1O (stereo not drawn)"
class = "label 2"

[[record]]
compound = "COC1=CC(=O)c2c(cc(COP(=O)(N(C)CCBr)N(C)CCBr)n2C)C1=O"
class = "label 0"

[[record]]
compound = "O=S1(=O)CC(Br)C(Br)C1 (stereo not drawn)"
class = "label 1"

[[record]]
compound = "Cc1ccc([N+](=O)[O-])cc1NC(=O)C(=O)C1CCC2=C(Sc3ccccc3N2)C1=O (stereo not drawn)"
class = "label 2"

[[record]]
compound = "N#Cc1c(C#N)c(-c2ccccc2)n(/N=C\\c2ccccc2)c1N"
class = "label 2"

[[record]]
compound = "C=C(C)[C@@H]1CC[C@]2(C)[C@H](CC=C3[C@@H]4[C@H](C)[C@@H](C)CC[C@]4(CO)CC[C@]32C)[C@@]1(C)CCCN"
class = "label 0"

[[record]]
compound = "CCCCN(CCCC)C(=O)C(=O)CC(=O)/C=C/c1ccccc1"
class = "label 2"

[[record]]
compound = "CSc1ccccc1P(CCP(c1ccccc1SC)c1ccccc1SC)c1ccccc1SC"
class = "label 2"

[[record]]
compound = "C[C@]12CC[C@H]3[C@@H](CCC4=C[C@@H](OC5OCC(OC6OC(CO)C(O)C(O)C6O)C(O)C5O)CC[C@@]43C=O)[C@@]1(O)CCC2C1=CC(=O)OC1 (stereo partly drawn)"
class = "label 1"

[[record]]
compound = "NC1CCCCC1N.O=S(=O)([O-])CCCN1CCN(CCO)CC1.O=S(=O)([O-])CCCN1CCN(CCO)CC1.[Pt+4]"
class = "label 2"

[[record]]
compound = "N=C1C(c2nc(-c3ccc(Br)cc3)cs2)=C(O)CN1CC1CCCO1 (stereo not drawn)"
class = "label 2"

[[record]]
compound = "CC(=O)O[C@H]1C(=O)[C@@]2(C)C(C(OC(=O)c3ccccc3)[C@]3(O)CC(OC(=O)C(O)C(NC(=O)c4ccccc4)c4ccc(C)cc4)C(C)=C1C3(C)C)[C@]1(OC(C)=O)CO[C@@H]1C[C@@H]2O (stereo partly drawn)"
class = "label 0"

[[record]]
compound = "CCCC(=O)Nc1cc(/C=C/C(=O)N2C[C@H]3C[C@@]34C2=CC(=O)c2[nH]cc(C)c24)n(C)c1"
class = "label 0"

[[record]]
compound = "COc1ccc(N2C(=O)/C(=C/c3ccc(N(CCC#N)CCC#N)cc3)N=C2c2ccccc2)c(OC)c1"
class = "label 2"

[[record]]
compound = "N#Cc1c(NCc2ccccc2)nc(NCc2ccccc2)c(C#N)c1-c1cccc(O)c1"
class = "label 2"

[[record]]
compound = "O=C(Nc1ccc(-c2ccnc(Nc3ccc(N4CCOCC4)cc3)n2)cc1)C1CCCN1 (stereo not drawn)"
class = "label 1"

[[record]]
compound = "CCC1CCC2c3c([nH]c4ccccc34)C3C(=O)N(c4ccc(OC)cc4)C(=O)C3C2C1 (stereo not drawn)"
class = "label 2"

[[record]]
compound = "O=C1OC2C=CC1C1(CCOC1=O)C2 (stereo not drawn)"
class = "label 2"

[[record]]
compound = "CC[C@H](C)[C@H](NC(=O)c1nccn1C)C(=O)N(C)[C@H](C[C@@H](OC(C)=O)c1nc(C(=O)N[C@@H](Cc2ccccc2)C[C@H](C)C(=O)OC)cs1)C(C)C"
class = "label 2"

[[record]]
compound = "O=S(=O)(O)c1ccc(Nc2ccnc3cc(Cl)ccc23)cc1"
class = "label 2"

[[record]]
compound = "Cc1ccc(S(=O)(=O)N2CCN(CCO)CCN(S(=O)(=O)c3ccc(C)cc3)CCN(CCO)CC2)cc1"
class = "label 2"

[[record]]
compound = "Cc1nnc(CC#N)n1NC(=O)CC#N"
class = "label 2"

[[record]]
compound = "CC(=O)[C@H]1CCC2[C@@H]3CC=C4C(O)C(OS(=O)(=O)O)CC[C@]4(C)C3CC[C@@]21C (stereo partly drawn)"
class = "label 2"

[[record]]
compound = "Cc1ccc(/C=C2\\CN(Cc3cn(CCNc4ccnc5cc(Cl)ccc45)nn3)C/C(=C\\c3ccc(C)cc3)C2=O)cc1"
class = "label 0"

[[record]]
compound = "CCOC(=O)N1C(=S)C(C(=O)OC)(C(=O)OC)N=C1C"
class = "label 2"

[[record]]
compound = "CS(=O)(=O)Nc1cc(-c2ccc3ncnc(Nc4cccc(Cl)c4F)c3c2)cnc1Cl"
class = "label 1"


Taken from PubChem BioAssay (NCI).
